target.entity: Serine/threonine-protein kinase Nek9 (Homo sapiens) (UniProt Q8TD19);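 further: reported value is the mean percent inhibition of NEK9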
Sequence (Q8TD19 whole entry): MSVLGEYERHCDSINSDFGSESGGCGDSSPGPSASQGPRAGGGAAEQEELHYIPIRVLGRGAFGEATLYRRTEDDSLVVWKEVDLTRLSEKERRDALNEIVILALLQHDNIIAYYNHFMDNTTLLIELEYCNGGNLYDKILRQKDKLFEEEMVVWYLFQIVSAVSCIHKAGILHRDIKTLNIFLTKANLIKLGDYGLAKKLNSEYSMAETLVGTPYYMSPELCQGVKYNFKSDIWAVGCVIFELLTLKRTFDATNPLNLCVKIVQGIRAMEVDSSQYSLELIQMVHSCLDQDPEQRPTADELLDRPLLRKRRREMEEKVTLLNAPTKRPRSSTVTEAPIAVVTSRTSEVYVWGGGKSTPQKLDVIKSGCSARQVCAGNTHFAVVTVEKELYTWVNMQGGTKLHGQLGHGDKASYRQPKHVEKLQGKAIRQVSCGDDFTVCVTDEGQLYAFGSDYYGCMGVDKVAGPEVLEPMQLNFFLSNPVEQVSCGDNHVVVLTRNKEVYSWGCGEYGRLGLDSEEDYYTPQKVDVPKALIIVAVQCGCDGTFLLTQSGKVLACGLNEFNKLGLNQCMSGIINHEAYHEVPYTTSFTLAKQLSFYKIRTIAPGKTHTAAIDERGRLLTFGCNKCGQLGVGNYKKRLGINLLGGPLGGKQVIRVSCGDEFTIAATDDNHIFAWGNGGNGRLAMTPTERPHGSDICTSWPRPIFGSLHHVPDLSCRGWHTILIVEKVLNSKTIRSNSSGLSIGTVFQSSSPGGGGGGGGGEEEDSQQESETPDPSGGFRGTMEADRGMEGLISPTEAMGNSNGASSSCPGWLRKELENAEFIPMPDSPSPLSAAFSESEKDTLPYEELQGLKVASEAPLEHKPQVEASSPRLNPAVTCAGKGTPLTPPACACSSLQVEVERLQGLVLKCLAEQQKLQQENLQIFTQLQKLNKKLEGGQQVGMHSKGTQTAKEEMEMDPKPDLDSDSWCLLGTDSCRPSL
stated.conditions: at 0.1 µM
A collection of molecules and their measured inhibition
reported.property: inhibition (%)

molecule	reported.property	unit.abbrev	measured.number
CCn1c(-c2nonc2N)nc2c(C#CC(C)(C)O)nc(OC[C@@H](N)c3ccccc3)cc21	inhibition	%	-3.59
CN1CCC(C(=O)Nc2n[nH]c3nnc(-c4ccccc4)cc23)CC1	inhibition	%	12.7
Cn1cc(C=C2C(=O)Nc3cccnc32)c2ccccc21	inhibition	%	2.88
NC(=O)c1ccc(-c2nc(-c3ccccn3)c(-c3ccc4c(c3)OCO4)[nH]2)cc1	inhibition	%	6.53
CCn1c(-c2nonc2N)nc2cncc(C(=O)N3CCNCC3)c21	inhibition	%	6
COc1cc2ncn(-c3cc(OCc4ccccc4C(F)(F)F)c(C(N)=O)s3)c2cc1OC	inhibition	%	16.7
Cc1nnc(-c2ccc(C)c(-c3ccc(C(=O)Nc4cccc(C#N)c4)cc3)c2)o1	inhibition	%	5.36
COc1cc2ncn(-c3cc(O[C@H](C)c4ccccc4Cl)c(C(N)=O)s3)c2cc1OC	inhibition	%	62
CCc1cccc(NC(=O)Nc2ccc(Oc3ccc4nc(NC(=O)OC)[nH]c4c3)cc2)c1	inhibition	%	3.74
CCn1c(-c2nonc2N)nc2ccncc21	inhibition	%	0.35
CC1=C(C(=O)Nc2ccc3[nH]ncc3c2)C(c2ccc(Cl)c(Cl)c2)CC(=O)N1 (configuration not stated)	inhibition	%	7.85
c1cnn2ncc(-c3ccnc(Nc4ccc5c(c4)OCCO5)n3)c2c1	inhibition	%	16.2

* * *

target.entity: Casein kinase I isoform gamma-2 (Homo sapiens);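 further: values are mean inhibition figures reported as part of the GSK PKIS dataset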
stated.conditions: at 0.1 µM
reported.property: inhibition (%)

substance.smiles	reported.property	measured.number
NC(=O)c1ccc(-c2nc(-c3ccccn3)c(-c3ccc4c(c3)OCO4)[nH]2)cc1	inhibition	1.5
O=C(Nc1n[nH]c2nc(-c3ccco3)c(Br)cc12)C1CC1	inhibition	2.3
COc1ccc(-c2coc3ncnc(N)c23)cc1	inhibition	4.25
c1cnn2ncc(-c3ccnc(Nc4ccc5c(c4)OCCO5)n3)c2c1	inhibition	7.95
COc1cc2ncn(-c3cc(OCc4ccccc4Cl)c(C(N)=O)s3)c2cc1OC	inhibition	-0.04
Fc1cccc(COc2ccc(Nc3ncnc4cc(-c5ccc[nH]5)sc34)cc2Cl)c1	inhibition	-1.97

* * *

target.entity: Mitogen-activated protein kinase 3 (Homo sapiens) (UniProt P27361);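 further: values are mean percent inhibition of MAPK3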
Sequence (P27361 whole entry): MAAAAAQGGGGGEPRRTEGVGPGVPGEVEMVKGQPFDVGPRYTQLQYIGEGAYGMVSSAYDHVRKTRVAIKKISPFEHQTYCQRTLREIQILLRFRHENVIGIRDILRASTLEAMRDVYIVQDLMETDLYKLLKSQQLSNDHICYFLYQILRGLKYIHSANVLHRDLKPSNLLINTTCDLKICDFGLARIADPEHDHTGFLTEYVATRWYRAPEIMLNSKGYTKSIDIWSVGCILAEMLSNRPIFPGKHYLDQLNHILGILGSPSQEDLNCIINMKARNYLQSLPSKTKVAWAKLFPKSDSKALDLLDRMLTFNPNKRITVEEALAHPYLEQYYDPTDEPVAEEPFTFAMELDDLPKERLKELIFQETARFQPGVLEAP
stated.conditions: at 1 µM
Recorded measurements of inhibition, one per entry

substance.smiles	target.entity	unit.abbrev	inhibition
COc1cc(C=NNc2ncnc3c2cnn3-c2ccccc2)ccc1O	Mitogen-activated protein kinase 3 (Homo sapiens) (UniProt P27361)	%	1.84
CCCN1CCC(Oc2cc(Nc3nc(Nc4cccc(F)c4C(N)=O)c4cc[nH]c4n3)c(OC)cc2Cl)CC1	Mitogen-activated protein kinase 3 (Homo sapiens) (UniProt P27361)	%	2.9
O=C1NC(=O)C(c2ccccc2Cl)=C1Nc1cccc(O)c1	Mitogen-activated protein kinase 3 (Homo sapiens) (UniProt P27361)	%	1.29
Nc1ncnc2occ(-c3ccc(NC(=O)Nc4cccc(C(F)(F)F)c4)cc3)c12	Mitogen-activated protein kinase 3 (Homo sapiens) (UniProt P27361)	%	3.6
CCn1c(-c2nonc2N)nc2cncc(C(=O)N3CCNCC3)c21	Mitogen-activated protein kinase 3 (Homo sapiens) (UniProt P27361)	%	7.02
O=C1NC(=O)C(c2ccc(Cl)cc2)=C1Nc1ccc(Cl)c(C(=O)O)c1	Mitogen-activated protein kinase 3 (Homo sapiens) (UniProt P27361)	%	0
